TARGET DESC: Proteasome subunit beta (Trypanosoma cruzi) (UniProt O96673)
Sequence (O96673 as listed by the source): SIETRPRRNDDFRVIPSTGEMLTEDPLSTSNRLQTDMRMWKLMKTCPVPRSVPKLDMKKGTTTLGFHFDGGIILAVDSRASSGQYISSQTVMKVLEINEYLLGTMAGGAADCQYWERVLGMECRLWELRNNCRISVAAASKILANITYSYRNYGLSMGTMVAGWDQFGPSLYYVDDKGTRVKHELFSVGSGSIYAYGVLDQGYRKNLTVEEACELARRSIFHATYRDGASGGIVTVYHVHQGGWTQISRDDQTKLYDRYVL
EXPERIMENT SUMMARY: Trypanosoma cruzi proteasome chymotrypsin-like activity (TcProtChymo) assay. Note: in the data most compounds retested in dose-response had high values.
Assay type: functional
Design: scale not given: direction of the effect not stated beside the values
EXPERIMENTAL CONDITIONS: 9.37 µM
MEASURED QUANTITY: Percent Effect (%)
Give the number; % is assumed, so skip it.

Please review the following examples before continuing.
| COMPOUND | TARGET DESC | ENDPOINT VALUE |
| --- | --- | --- |
| CCN(CC)Cc1ccc(C(=O)N2CCCCC2Cn2cccn2)o1 (stereo unspecified) | Proteasome subunit beta (Trypanosoma cruzi) (UniProt O96673) | 3.23 |
| CCc1nnc2n1CCN(CC(=O)Nc1sccc1C#N)C2 | Proteasome subunit beta (Trypanosoma cruzi) (UniProt O96673) | 12.6 |
| CCN(Cc1ccco1)C(=O)NCc1nnc2n1CCC2 | Proteasome subunit beta (Trypanosoma cruzi) (UniProt O96673) | 20.5 |
| COc1ccc(S(=O)(=O)NCc2cccnc2N(C)C)cc1F | Proteasome subunit beta (Trypanosoma cruzi) (UniProt O96673) | 4.18 |

[in] Param item = CC(C)(C)OC(=O)N1CCCc2ccc(NCc3ncc[nH]3)cc21 ; retrieve measured Percent Effect.
[out] 4.66

[in] Consider the compound shown here: CN(C)C(=O)CSc1nnc(CCNC(=O)OC(C)(C)C)o1 What is its recorded Percent Effect?
[out] 13.9

----------
Documented Percent Effect across a set of compounds
TARGET DESC: Sialic acid-binding Ig-like lectin 9 (Homo sapiens)
EXPERIMENT SUMMARY: Hs-Siglec9 ALPHAscreen SOP 20170721
Parameters: scale not given: direction of the effect not stated beside the values
EXPERIMENTAL CONDITIONS: 10 µM
# unit: % | format: bare number

Consider the reported Percent Effect for these compounds:
| COMPOUND | MEASURED QUANTITY | ENDPOINT VALUE |
| --- | --- | --- |
| COc1ccc(-n2cnnc2SCCC#N)cn1 | Percent Effect | 11.1 |
| Cc1[nH]ccc1C(=O)Nc1cccc(CN2CCC(O)CC2)c1 | Percent Effect | -6.23 |
| FC(F)(F)C1CCc2nnc(CNCc3ccsc3)n2C1 (stereo unspecified) | Percent Effect | 30.8 |
| CC(O)CN1CCN(Cc2cccc(C(=O)N(C)C)c2)CC1 (stereo unspecified) | Percent Effect | 5.64 |
| O=C(Nc1cccnc1)[C@H]1C[C@@H]2CCN(c3nncs3)C[C@H]2O1 | Percent Effect | -1.47 |

Here is the next item to consider.
[in] Endpoint output: Percent Effect of CCS(=O)(=O)CCNC(=O)c1ccc(-c2ccc(C)cc2)cc1F . Value?
[out] 2.26

----------
TARGET DESC: Ubiquitin-activating enzyme e1, putative (Leishmania donovani (strain BPK282A1))
EXPERIMENT SUMMARY: Leishmania donovani Ubiquitin Activating Enzyme (LdE1)
Assay type: functional
Set-up: scale not given: direction of the effect not stated beside the values
EXPERIMENTAL CONDITIONS: 30 µM
Measured potencies and affinities stand elsewhere.
MEASURED QUANTITY: Percent Effect (%)
Give just the numeric value; % need not be written.

The cases that follow already have their Percent Effect on record.
| COMPOUND | Percent Effect, % |
| --- | --- |
| CCOc1cccc(C(=O)N2CCN(c3nccc(OC)n3)CC2)c1 | 5.26 |
| CCc1nnc2n1CCN(Cc1csc(-c3ccsc3)n1)C2 | -6.94 |
| Cc1cc(C)n(CC2CN(CCOc3cccc(F)c3)CCO2)n1 (centres undefined) | 7.89 |
| COCCN1C(=O)C[C@H]2[C@H]1CCN2Cc1cccc(C#N)c1 | 2.67 |
| O=C1CN(Cc2nnc(-c3ccc(Br)cc3)o2)CCN1 | 18.1 |

[in] Quick check: Percent Effect of Cn1ccnc1-c1ccccc1C(=O)N1CCc2c(nc(N)[nH]c2=O)C1 ?
[out] 7.79

[in] What Percent Effect value was documented for this compound, CC(NC(=O)NCCCO)c1ccc2c(c1)OCCO2 (centres undefined) ?
[out] 16.2

[in] What value of Percent Effect has been recorded for this entry: Cc1nc(C2CCCN(C(=O)c3ccc(N4CCCC4)nc3)C2)no1 (centres undefined)
[out] 3.8

[in] Quick one: Percent Effect of COCc1cnc2n1CCN(C(=O)C1=CCCCC1)C2C (centres undefined) ?
[out] 17.3

[in] Give its Percent Effect value. Item: CN(C)Cc1ccnc(C2CCCN2Cc2cc[nH]n2)n1 (centres undefined)
[out] -6.76

[in] Any idea what Percent Effect was measured for Nc1cc(N2CCCC2c2cnccn2)ncn1 (centres undefined) ?
[out] 9.46

[in] Please report the recorded Percent Effect for CCn1cc2c(n1)CN(Cc1nccs1)CC2COCC1CC1 (centres undefined) .
[out] 13.3

[in] Which Percent Effect is reported for this compound? CN1CCOC(CNCc2cccc(OCc3ccccn3)c2)C1 (centres undefined)
[out] 5.06

[in] Quick one: Percent Effect for CCc1csc(C2CCCN(C(=O)c3ccnc(N(C)C)c3)C2)n1 (centres undefined) ?
[out] 13.2

[in] Entry CCC(CNC(=O)Nc1cnn(CC)c1)N1CCCC1 (centres undefined) : reported Percent Effect = ?
[out] 17.7

[in] Return reported Percent Effect; argument: Cc1nnc2n1CCN(C(=O)c1cn(-c3ccccc3Cl)nn1)C2
[out] 8.22

[in] May I ask what Percent Effect has been recorded for N#Cc1cccc(S(=O)(=O)N2CCCCC2CCN2CCCC2=O)c1 (centres undefined) ?
[out] -52

[in] What does the record list as Percent Effect for O=C(Nc1ccccc1F)N(CCO)Cc1ccsc1 ?
[out] 0

[in] Bench note: what Percent Effect did CCN(Cc1ccc2c(c1)OCO2)C(=O)NC(C)Cn1cccn1 (centres undefined) show?
[out] 20.8

[in] Given the compound CN(Cc1ccc(F)cc1)CC1(O)CCCN(CC(C)(C)C)C1=O (centres undefined) , what is its reported Percent Effect?
[out] -1.39

----------
TARGET DESC: Tyrosyl-tRNA synthetase, putative (Trypanosoma cruzi (strain CL Brener)) (UniProt Q4DSP6)
Sequence (Q4DSP6 as listed by the source): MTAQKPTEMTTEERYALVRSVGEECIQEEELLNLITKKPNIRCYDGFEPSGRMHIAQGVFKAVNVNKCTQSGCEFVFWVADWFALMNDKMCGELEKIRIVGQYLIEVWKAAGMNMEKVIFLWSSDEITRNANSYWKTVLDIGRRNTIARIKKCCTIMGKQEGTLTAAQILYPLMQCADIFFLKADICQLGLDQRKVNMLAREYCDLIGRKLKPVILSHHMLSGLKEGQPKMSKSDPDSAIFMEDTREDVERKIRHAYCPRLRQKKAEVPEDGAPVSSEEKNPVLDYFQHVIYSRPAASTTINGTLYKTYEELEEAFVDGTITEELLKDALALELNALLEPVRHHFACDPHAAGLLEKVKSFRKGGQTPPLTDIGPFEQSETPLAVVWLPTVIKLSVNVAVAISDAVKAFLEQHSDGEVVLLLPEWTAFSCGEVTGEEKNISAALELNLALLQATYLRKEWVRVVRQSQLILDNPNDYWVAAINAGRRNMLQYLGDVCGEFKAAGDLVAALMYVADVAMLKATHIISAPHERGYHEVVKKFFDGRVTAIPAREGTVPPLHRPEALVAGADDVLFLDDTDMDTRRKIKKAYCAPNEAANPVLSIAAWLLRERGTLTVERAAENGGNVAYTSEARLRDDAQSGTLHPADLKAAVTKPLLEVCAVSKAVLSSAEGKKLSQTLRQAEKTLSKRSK
EXPERIMENT SUMMARY: Trypanosoma cruzi tyrosyl tRNA synthetase (TcYRS) _High Tyrosine SOP; note: in the data most compounds retested in dose-response had high values
Format: functional
Design: scale not given: direction of the effect not stated beside the values
EXPERIMENTAL CONDITIONS: 30 µM
MEASURED QUANTITY: Percent Effect (%)
Write the value in % as a bare number.

Recorded results for 3 compounds are shown here.
| COMPOUND | Percent Effect [%] |
| --- | --- |
| Fc1cccc(N2C[C@H]3CCN(c4cccnc4)C[C@H]3C2)c1 | 23.8 |
| c1cnn(CC2CN(CCc3ccncc3)CCO2)c1 (stereo unspecified) | 4.76 |
| Cc1cnn(CC2CCCN2C(=O)c2ccc3cc[nH]c3c2)c1 (stereo unspecified) | 0 |

[in] What does the data say about its Percent Effect? Entry: CCc1n[nH]c(C2CN(C(=O)Cn3ccccc3=O)CCO2)n1 (stereo unspecified)
[out] 3.12

[in] Fill blank: measured Percent Effect of the compound COc1ccc(-c2cc(C3CCCCCN3S(=O)(=O)N(C)C)on2)cc1 (stereo unspecified) is ____.
[out] -50.5

[in] What does the record list as Percent Effect for Cc1cc(C)nc(CCNC(=O)C(c2ccc(F)cc2)N(C)C)n1 (stereo unspecified) ?
[out] 1.04

[in] Which value of Percent Effect has been reported for CCCC(C)CN1CCC(n2cc(CCCO)nn2)CC1 (stereo unspecified) in the records?
[out] 4.21

[in] Field request: Percent Effect | item: Cc1cc2n(n1)CC(CNCc1ccnc(-n3ccnc3C)c1)CN2 (stereo unspecified)
[out] 3.43

[in] May I ask what Percent Effect has been recorded for COc1ccc(S(=O)(=O)N2CCCC3(CCCN3S(C)(=O)=O)C2)cc1 (stereo unspecified) ?
[out] 0

[in] Fill in: Percent Effect of CCn1cnnc1C1CCN(C(=O)c2ccccc2OC)CC1 is ___
[out] 4.85

[in] Which value of Percent Effect has been reported for CS(=O)(=O)NCCCNC(=O)c1cccnc1O in the records?
[out] 7.92

----------
TARGET DESC: Tyrosyl-tRNA synthetase, putative (Trypanosoma cruzi (strain CL Brener)) (UniProt Q4DSP6)
EXPERIMENT SUMMARY: Trypanosoma cruzi tyrosyl tRNA synthetase (TcYRS) _High Tyrosine SOP; note: in the data most compounds retested in dose-response had high values
Format: functional
Set-up: scale not given: direction of the effect not stated beside the values
EXPERIMENTAL CONDITIONS: 30 µM
Percent Effect under 5% gets 1, anything at or over 5% gets -1.

[in] I'd appreciate it if you could check whether c1cnc(-c2cnc(N3CCSCC3)nc2C2CC2)cn1 has Percent Effect smaller than 5%.
[out] 1

[in] Below 5% on Percent Effect? Entry CCc1nnc2n1CCN(Cc1csc(-c3cnn(C)c3)n1)C2
[out] -1

[in] Take the compound Cc1cccc2[nH]c(C3CCN(C(=O)c4ccnn4C)CC3)nc12 and say whether its Percent Effect is less than 5%.
[out] -1

[in] Record COCC(=O)NCc1cc(=O)n2c(n1)CN(Cc1ccsc1)CCC2 : is its Percent Effect strictly below 5%?
[out] 1

[in] hey, is Percent Effect for CC(C)CCN1Cc2c(C(=O)O)ncn2-c2ccccc2S1(=O)=O lower than 5% or not?
[out] 1

[in] # TODO verify Percent Effect < 5% strictly for this compound: CCN1CCOC(CNCc2ccccn2)C1 (stereo unspecified)
[out] -1
